Origin of values: patent US10829478B2

Molecular target: human ADAMTS-5 (Homo sapiens (Human), UniProt Q9UNA0)
Sequence (Q9UNA0 262-930): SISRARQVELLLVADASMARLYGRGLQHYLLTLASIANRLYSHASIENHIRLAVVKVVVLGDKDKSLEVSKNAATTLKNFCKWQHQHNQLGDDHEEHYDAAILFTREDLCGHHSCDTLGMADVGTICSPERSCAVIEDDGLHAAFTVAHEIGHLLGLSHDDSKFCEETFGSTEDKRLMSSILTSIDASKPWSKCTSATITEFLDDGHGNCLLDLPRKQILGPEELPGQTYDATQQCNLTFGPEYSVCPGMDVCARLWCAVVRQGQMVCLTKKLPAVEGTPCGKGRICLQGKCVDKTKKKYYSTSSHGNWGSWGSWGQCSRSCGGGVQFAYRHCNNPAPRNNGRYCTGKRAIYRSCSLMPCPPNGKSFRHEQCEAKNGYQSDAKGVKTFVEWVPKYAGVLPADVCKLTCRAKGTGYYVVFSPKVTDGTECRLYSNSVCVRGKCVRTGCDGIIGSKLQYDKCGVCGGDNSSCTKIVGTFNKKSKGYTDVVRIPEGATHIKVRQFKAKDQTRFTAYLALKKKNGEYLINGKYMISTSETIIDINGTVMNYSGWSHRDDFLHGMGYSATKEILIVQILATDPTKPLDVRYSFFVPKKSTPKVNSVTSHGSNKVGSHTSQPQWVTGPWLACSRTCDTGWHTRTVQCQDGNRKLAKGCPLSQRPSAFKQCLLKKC
Assay: hADAMTS-5 TBIS-1 cleavage assay, Protocol 3
Format: biochemical
Settings: 90 min at 37° C., read-out: hADAMTS-5 potency IC50
Hi there, I'd appreciate the recorded IC50 for every entry that follows.

Form field IC50, entry COc1cc(F)cc(N2CCN(C(=O)CC[C@@]3(C)NC(=O)NC3=O)CC2)c1 [Cpd 19] : > 100 nM

Form field IC50, entry COc1cc(N2CCN(C(=O)CC[C@@]3(C)NC(=O)NC3=O)CC2C(F)(F)F)ccc1Cl (some centres unmarked) [Cpd 118] : > 100 nM

Form field IC50, entry COc1ccc(C)c(N2CCN(C(=O)CC[C@H]3NC(=O)NC3=O)CC2)c1 [Cpd 136] : > 100 nM

Form field IC50, entry COc1cc(F)cc(N2CCN(C(=O)[C@H](C)C[C@@]3(C4CC4)NC(=O)NC3=O)CC2)c1 (stereo in doubt) [Cpd 130] : > 100 nM

Form field IC50, entry COc1cc(N2CCN(C(=O)[C@@H](C)C[C@@]3(C)NC(=O)NC3=O)CC2)cc(F)c1F (stereo in doubt) [Cpd 43] : 0.001 to 25 nM

Required: IC50, one value per compound below.
1. COc1cc(N2CCN(C(=O)CC[C@H]3NC(=O)NC3=O)CC2)cc(Cl)c1Cl [Cpd 145]
2. COc1cc(N2CCN(C(=O)C(C)CC3(C)NC(=O)NC3=O)C[C@@H]2C)cc(C)c1Cl (mixture of isomers) [Cpd 125]
3. COc1cc(N2CCN(C(=O)CCC3(C)NC(=O)NC3=O)C[C@@H]2C)cc(F)c1Cl (some centres unmarked) [Cpd 39]
4. CCOc1cc(N2CCN(C(=O)CC[C@H]3NC(=O)NC3=O)CC2)cc(OC)c1Cl [Cpd 149]

Reply text:
["50 to 100 nM", "25 to 50 nM", "50 to 100 nM", "> 100 nM"]

Required: IC50, one value per compound below.
1. COc1cc(N2CCN(C(=O)CCC3(C)NC(=O)NC3=O)CC2)cc(Cl)c1F (centres unmarked) [Cpd 50]
2. COc1cc(N2CCN(C(=O)CC[C@@]3(C4CC4)NC(=O)NC3=O)C[C@@H]2C)cc(F)c1Cl [Cpd 65]
3. COc1cc(N2CCN(C(=O)[C@@H](C)C[C@@]3(C)NC(=O)NC3=O)CC2)cc(OC)c1Cl (stereo in doubt) [Cpd 40]
4. C[C@H]1CN(C(=O)CC[C@@]2(C)NC(=O)NC2=O)CCN1c1ccc(Cl)c(OC(F)(F)F)c1 [Cpd 86]
5. COc1cc(N2CCN(C(=O)[C@@H](C)C[C@@]3(c4ccccn4)NC(=O)NC3=O)C[C@@H]2C)cc(F)c1F (stereo in doubt) [Cpd 49]
6. COc1cc(N2CCN(C(=O)[C@@H](C)C[C@@]3(C)NC(=O)NC3=O)CC2)cc(F)c1Cl [Cpd 122]
7. COc1cc(N2CCN(C(=O)CC[C@@]3(C)NC(=O)NC3=O)C[C@@H]2C)ccc1F [Cpd 93]
8. COc1cncc(N2CCN(C(=O)CCC3(C4CC4)NC(=O)NC3=O)C[C@@H]2C)c1 (some centres unmarked) [Cpd 60]

Reply text:
1: > 100 nM; 2: 0.001 to 25 nM; 3: 50 to 100 nM; 4: > 100 nM; 5: 25 to 50 nM; 6: 0.001 to 25 nM; 7: > 100 nM; 8: > 100 nM

Required: IC50, one value per compound below.
1. COc1cc(N2CCN(C(=O)CC[C@@]3(C)NC(=O)NC3=O)C[C@@H]2C)c(C)cc1F [Cpd 66]
2. COc1ccc(C)c(N2CCN(C(=O)CCC3(C)NC(=O)NC3=O)CC2)c1 (centres unmarked) [Cpd 32]
3. COc1cc(N2CCN(C(=O)CC[C@@]3(C4CC4)NC(=O)NC3=O)C[C@@H]2C)cc(F)c1F [Cpd 37]
4. COc1cc(N2CCN(C(=O)CC[C@H]3NC(=O)NC3=O)CC2)c(C)cc1Cl [Cpd 138]

Reply text:
1. > 100 nM
2. > 100 nM
3. 0.001 to 25 nM
4. > 100 nM
